These data points were gathered from paper PMC11939955.

- Tested on: Staphylococcus aureus (ATCC 25923)
- Format: cell-based
- Experimental: Hylin-Pul3 and six derivatives (dHP3-31, dHP3-50, dHP3-50.137, dHP3-50.190, dHP3-84, and dHP3-84.39) were tested against two Gram-positive bacteria, Staphylococcus aureus (ATCC 25923) and Streptococcus mutans (ATCC 25175), as well as three Gram-negative bacteria: Escherichia coli (ATCC 25922), Klebsiella pneumoniae (ATCC 13883), and Acinetobacter baumannii (ATCC 13304). The minimal inhibitory concentration (MIC) was determined using the microbroth dilution. […]
Where no end group is shown, it is not given here.
Lab note - cut at 30 µM for Antimicrobial Activity (MIC) S. aureus ATCC 25923: MET if strictly below, NOT MET if not.

RRGKLIPRLAKAIGRLIRK-OH [dHP3-84.39] :: MET
LWPAIRGAIKKLIKK-NH2 [dHP3-31] :: NOT MET
RLGALIPAIRGAIKKLIKK-NH2 [dHP3-50] :: MET
RLGKLIPRIAKAIGRLIRK-OH [dHP3-84] :: MET
RAGALWPAIRGAIKKIIKK-NH2 [dHP3-50.137] :: NOT MET

Here is the next item to consider.
Data request: Please state whether Antimicrobial Activity (MIC) S. aureus ATCC 25923 is below 30 µM for FLGALIPAIAGAIGGLIRK-NH2 [hylin-Pul3, reference compound]
Data returned: MET
